System: MOLT-4
Experiment: NCI tumour cell line growth inhibition, 48 h
The source made the active and inactive calls. Cut-off read from the data, not from the text of the source: active = GI50 up to about 1.1 µM and inactive = higher.
Can you answer with just one of these options? 1 (yes) for active, 0 (no) for inactive

Example entries begin here.
COC(=O)C[C@](O)(CCC(C)(C)O)C(=O)O[C@@H]1C(OC)=C[C@]23CCCN2CCc2cc4c(cc2[C@H]13)OCO4 | 1 (yes)
COC(=O)[C@H](Cc1ccccc1)NP(=O)(OCCC#N)OCC1OC(n2cc(C)c(=O)[nH]c2=O)CC1N=[N+]=[N-] (stereo partly drawn) | 0 (no)
O=P1(c2ccccc2)CCCCC1 | 0 (no)
COc1cc2nc(-c3cccs3)nc(N3CCN(c4ccccc4C(F)(F)F)CC3)c2cc1OC | 0 (no)

Prompt: Hi, do you know how COC(=O)C1CCC(N2C(=O)CCC2C(=O)OC)=N1 (stereo not drawn) came out in this test?
Completion: 0 (no)

Prompt: Hi, do you know how "C[C@]12CC[C@H]3[C@@H](CCC4=CC(=O)CC[C@@]43C)[C@@H]1CC[C@@H]2OC(=O)c1cccc2c(=O)c3ccccc3[nH]c12" came out in this test?
Completion: 0 (no)

Prompt: Hi, do you know how "COc1cc(C(=O)C/C(CCC(=O)Nc2ccccc2[N+](=O)[O-])=N\NC(=O)C(N)=O)ccc1O" came out in this test?
Completion: 0 (no)

Prompt: Hi, do you know how "O=C(N/N=C/c1ccccc1O)N/N=C/c1ccccc1O" came out in this test?
Completion: 0 (no)

====

Tested on: SK-MEL-5
Test: NCI tumour cell line growth inhibition, 48 h
Calls of active or inactive are those of the source. Rule as the data show it: active = GI50 up to about 1.1 µM and inactive = higher.
Can you answer with just one of these options? Y for active, N for inactive

CCOc1ccccc1N1CSc2nnc(-c3ccccc3)n2C1 | N
C/C(Cl)=N/OC(=O)Nc1ccc(F)c([N+](=O)[O-])c1 | N
CC1(C)CCCC2CC2CCC(C)(C)C1=O (centres undefined) | N

Prompt: Hi, do you know how "O=c1oc(C(C(F)(F)F)C(F)(F)F)nc2ccccc12" came out in this test?
Completion: N

Prompt: Hi, do you know how C=C1CC[C@@H](CCC2CCC3(OC2)O[C@]2(O)CC[C@@]3(C)OC2(C)C)C(C)(C)[C@H]1C/C=C1\CCOC1=O (some centres undefined) came out in this test?
Completion: Y

Prompt: Hi, do you know how "C/C(CC(=O)CCCC(=O)Nc1ccc(Cl)cc1Cl)=N/NC(=O)CC#N" came out in this test?
Completion: N

Prompt: Hi, do you know how COc1nc(NC2OCC(OC(C)=O)C(OC(C)=O)C2OC(C)=O)c(/N=C(\C)C(C)=O)c(=O)n1C (centres undefined) came out in this test?
Completion: N

Prompt: Hi, do you know how "O=c1c(Sc2c(SCSc3cnc4ccccc4c3Sc3c[nH]c4ccccc4c3=O)cnc3ccccc23)c[nH]c2ccccc12" came out in this test?
Completion: N

Prompt: Hi, do you know how "COC(=O)CCC(=O)Nc1cc(Cl)ccc1Cl" came out in this test?
Completion: N

====

Test system: TK-10
Assay: NCI tumour cell line growth inhibition, 48 h
Active and inactive are the calls of the source. Rule as the data show it: active = GI50 up to about 1.1 µM and inactive = higher.
result.type: GI50

Cc1ccc(-c2cc(=O)c3cc(C)c(C)c(C(=O)O)c3o2)cc1C | > 100 µM (inactive)
COc1cc2nc(-c3cccs3)nc(N3CCN(c4ccccc4C(F)(F)F)CC3)c2cc1OC | 45 µM (inactive)
CO/N=C1\CC(NC(=O)CNC(=O)OC(C)(C)C)c2ccsc21 (configuration not stated) | > 100 µM (inactive)
CN(C(=O)c1cccs1)C(=S)N1CCN(c2ccccn2)CC1 | > 100 µM (inactive)
CCCC(=O)OCC1OC(n2cc(F)c(=O)[nH]c2=O)C(F)C1O (configuration not stated) | > 100 µM (inactive)
O=C1/C(=C/c2cccc(Br)c2)Cc2ccccc21 | 63.5 µM (inactive)
CCOC(=O)Cn1c(=O)c2cc(-c3ccccc3)cc3c(Cl)nc4c(OC)c(OC)cc1c4c32 | 31.7 µM (inactive)
CC(=O)NNC(=O)C1CCCCN1 (configuration not stated) | > 100 µM (inactive)
CC1(C)CCC2=C(O1)/C(=N\Nc1ccc(S(N)(=O)=O)cc1)c1ccccc1C2=O | 14.5 µM (inactive)
CSC(C1c2ccccc2N(C)C2=NC(=O)N(C)C(=O)C21Cl)S(=O)(=O)c1ccc(C)cc1 (configuration not stated) | > 100 µM (inactive)

Lab note: molecule COC(=O)C(=O)C(C(=O)C(=O)Nc1ccc(Cl)cc1C)c1nc2ccc(C(=O)c3ccccc3)cc2nc1O (configuration not stated) tested on TK-10; recorded GI50 was > 100 µM (inactive)

Lab note: molecule "O=CN(O)CC(=O)O" tested on TK-10; recorded GI50 was > 100 µM (inactive)

Lab note: molecule "CCN(CC)CCNc1ccc2ncn3c4ccccc4c(=O)c1c23" tested on TK-10; recorded GI50 was 7.41 µM (inactive)

Lab note: molecule Cn1c2c(c3ccccc31)C1CCCCCCC1C1C(=O)OC(=O)C21 (configuration not stated) tested on TK-10; recorded GI50 was > 100 µM (inactive)

Lab note: molecule N#CCCN(C1=NN(C(=O)CC(=O)Nc2ccc(Cl)cc2)C(c2ccccc2)C1)c1ccc(Cl)cc1 (configuration not stated) tested on TK-10; recorded GI50 was > 100 µM (inactive)

Lab note: molecule "C[C@]12CC[C@H]3[C@@H](CCC4=CC(=O)CC[C@@]43C)[C@@H]1CC[C@@H]2OC(=O)c1cccc2c(=O)c3ccccc3[nH]c12" tested on TK-10; recorded GI50 was > 100 µM (inactive)

Lab note: molecule "COc1ccc(-c2nc(N(C)C)c3ccccc3n2)cc1" tested on TK-10; recorded GI50 was 18.3 µM (inactive)

====

Tested on: OVCAR-4
Test: NCI tumour cell line growth inhibition, 48 h
Structures can show the parent of a compound that is named as a salt. The source made the active and inactive calls. No stated cut-off is given here; in the data, active = GI50 up to about 1.1 µM and inactive = higher.
result.type: GI50

Cc1ccc(/N=C2N=C(Cl)/C(=C\c3ccco3)N\2)cc1 | > 100 µM (inactive)
CSC(C1c2ccccc2N(C)C2=NC(=O)N(C)C(=O)C21Cl)S(=O)(=O)c1ccc(C)cc1 (stereo unspecified) | 61.2 µM (inactive)
Oc1ccc(C(O)C2CCCCN2)cc1O (stereo unspecified) [RIMITEROL HYDROBROMIDE] | > 100 µM (inactive)
COC1=CC(=O)c2c(ccc3ncnc(N)c23)C1=O | 0.561 µM (active)
O=C(N/N=C/c1ccccc1O)N/N=C/c1ccccc1O | > 100 µM (inactive)
CC(=O)OCC1OC(n2cccnc2=O)C(OC(C)=O)C1OC(C)=O (stereo unspecified) | > 100 µM (inactive)

Form field GI50, entry C=CCN1CCC(OC(=O)C(O)(/C=C\CC)C2CCCC2)CC1 (stereo unspecified) : > 100 µM (inactive)

Form field GI50, entry "C[N+](C)=c1[nH]c2ccccc2[nH]1" : > 100 µM (inactive)

Form field GI50, entry "O=C1C/C(=C\O)C(=O)c2ccccc2N1" : > 100 µM (inactive)

Form field GI50, entry "COC(=O)CNC(=O)CSc1nnc(COc2ccc(Cl)cc2)n1-c1ccccc1" : > 100 µM (inactive)

Form field GI50, entry CC1C[C@@]2(c3ccccc3)C(=O)CCC[C@H]2N1 (stereo partly specified) : > 100 µM (inactive)

====

Tested on: OVCAR-4
Test: NCI tumour cell line growth inhibition, 48 h
Calls of active or inactive are those of the source. Cut-off read from the data, not from the text of the source: active = GI50 up to about 1.1 µM and inactive = higher.
Can you answer with just one of these options? yes (1) (active), no (0) (inactive)

Example entries begin here.
Cc1cc2c(c(C(N)=O)c1C)-c1cccc(F)c1C2=O | no (0)
O=C1c2cccc3cc([N+](=O)[O-])cc(c23)C(=O)N1CCCN1CCN(CCCNc2ccc3ncn4c5ccccc5c(=O)c2c34)CC1 | yes (1)
COc1cc2ccnc(-c3c4ccccc4c(N)c4c(OC)c(OC)ccc34)c2cc1OC | no (0)
C/C(CC(=O)CCCC(=O)Nc1ccc(Cl)cc1Cl)=N/NC(=O)CC#N | no (0)
COC(=O)C(N)CCCC(N)C(=O)NC(C)C(=O)NC(CCC(=O)NCCNCCNc1c2ccccc2nc2cccc([N+](=O)[O-])c12)C(N)=O (centres undefined) | no (0)

Prompt: Hi, do you know how "COc1cc2nc(-c3cccs3)nc(N3CCN(c4ccccc4C(F)(F)F)CC3)c2cc1OC" came out in this test?
Completion: no (0)

Prompt: Hi, do you know how CC(=O)c1ccc(N2C(=O)C3c4[nH]c5ccccc5c4C4CCC(C(C)(C)C)CC4C3C2=O)cc1 (centres undefined) came out in this test?
Completion: no (0)

Prompt: Hi, do you know how "CCCCCCNCCc1c[nH]cn1" came out in this test?
Completion: no (0)

Prompt: Hi, do you know how "CC(=O)c1ccc(NC(=O)C(=O)CC(=O)c2sc(-n3nc(-c4ccccc4)cc3-c3ccccc3)nc2C)cc1" came out in this test?
Completion: no (0)
